# System: BMPR2
# Assay Context: concentration: 1 μM, replicates: in singlicate; n = 1;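 also: KINOMEscan kinase panel screen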
Observed Property: %Inh (%)
Report the figure in % without appending any unit label.

Examples with their reported %Inh follow.
Missing value: %Inh, BMPR2, entry Nc1n[nH]c2cnc(-c3ccccc3)cc12 . Fill in?
33

# get_value(readout= %Inh, system= BMPR2) for CNC(=O)c1ccccc1Nc1nc(Nc2ccc(N3CCOCC3)cc2)ncc1Cl.Cl
53

Fill in the recorded %Inh for this compound, with BMPR2 as test system: Nc1ncnc2c1nc(-c1ccccc1)n2-c1ccccc1
46

Reported %Inh for BMPR2, given Cn1cc(-c2ccc3c(c2)CCN3C(=O)Cc2cccc(Cl)c2)c2c(N)ncnc21 ?
4

Continue with the next compound.
Fill in the recorded %Inh for this compound, with BMPR2 as test system: Cc1ccc(F)c(C(=O)Nc2cccc(-c3nn4ccccc4c3-c3ccnc(Nc4cccc(F)c4)n3)c2)c1F
8

###

# %Inh per entry
# Test system: TNK2
# Assay Context: concentration: 1 μM, replicates: in singlicate; n = 1
Give a bare numeral; the unit % is implied.

Here's what some known entries look like.
What value of %Inh has been recorded for this entry: CCn1c(-c2nonc2N)nc2c(C#CC(C)(C)O)nc(OC[C@H](N)c3ccccc3)cc21 [GSK943949]
8

Reported %Inh for CSc1cccc2c(-c3ccncn3)c(-c3ccc(F)cc3)nn12 [GW514786] : what is it?
6

Which %Inh value belongs to COc1cccc(C(=O)Nc2cccc(Oc3ccc4nc(NC(=O)C5CC5)cn4n3)c2)c1 ?
5

// lookup %Inh for Clc1ccc(-c2nn3ncccc3c2-c2ccnc(Nc3ccc4c(c3)OCCO4)n2)cc1 [GW829116]
0

Further cases:
Please look up its %Inh: COc1cc2c(cc1OCCN1CCNCC1)ncc1c3ccc(C#N)cc3[nH]c21
0

Requested field: %Inh. Item: CC(=O)N1CCN(c2ccc(Nc3nccc(-c4sc(C(C)C)nc4-c4cccc(NS(=O)(=O)c5cccc(Cl)c5)c4)n3)cn2)CC1 [GSK1660437]
28

###

Below, each entry is listed alongside its reported %Inh.
# Test system: CSNK1G2
# Assay Context: concentration: 1 μM, replicates: in singlicate; n = 1
Field: numeric (%). Do not append units.

Known %Inh results, listed for orientation:
// lookup %Inh for O=C(Nc1cccc(-c2nn3ncccc3c2-c2ccnc(Nc3ccccc3)n2)c1)c1c(F)cccc1F
0

// returns reported %Inh for input Cc1ccc(F)c(C(=O)Nc2cccc(-c3nn4ccccc4c3-c3ccnc(Nc4cccc(F)c4)n3)c2)c1F
12

I would be grateful if you could share the reported %Inh for COc1cccc(C2=C(Nc3ccc(Cl)c(C(=O)O)c3)C(=O)NC2=O)c1 .
0

// lookup %Inh for Cc1cccc(Nc2nc(N[C@H]3CCNC3)ncc2C(N)=O)c1.Cl
11

May I ask what %Inh has been recorded for Nc1ncnc2c1nc(-c1ccccc1)n2-c1ccccc1 ?
14

Next:
Could you tell me which %Inh is on file for COc1cc(Nc2nccc(N3CCC(NC(=O)c4cc5ccccc5s4)C3)n2)cc(OC)c1OC (centres unmarked) ?
13

Consider the compound shown here: O=C(Nc1cccc(-c2nn3ccccc3c2-c2ccnc(Nc3cccc(F)c3)n2)c1)c1c(F)ccc(F)c1Cl What is its recorded %Inh?
0

// %Inh lookup, key: NCCCC(NC(=O)c1cc(Br)c(-c2ccnc3[nH]ccc23)s1)c1ccccc1.O=C(O)C(F)(F)F.O=C(O)C(F)(F)F (centres unmarked)
97.2

###

# Tested on: ASK1
# Construct: gene MAP3K5
# Assay Context: concentration: 1 μM, replicates: in singlicate; n = 1
# maps each entry to its %Inh
Give the value in % but do not write % after it.

These solved cases illustrate the format of a correct answer.
Given the molecule Cc1ccc(C(=O)N2CC[C@@H](O)C2)cc1-n1c(C)cc(OCc2ccc(F)cc2F)c(Br)c1=O , what is its reported %Inh?
0

// lookup %Inh for COc1cc(Nc2nccc(-c3c(-c4cccc(NC(=O)c5c(F)cccc5F)c4)nn4ccccc34)n2)cc(OC)c1OC
5

Need %Inh of COc1ccc(-c2coc3ccc(-c4nnc(SCc5ccc(OC)c(C(F)(F)F)c5)o4)cc23)cc1 , thanks.
17

Next:
What value of %Inh has been recorded for this entry: Cc1ccc(S(=O)(=O)Nc2ccc(Nc3nccc(Nc4cccc5[nH]ncc45)n3)cc2)cc1
0

Quick check: %Inh of CN1CCN(Cc2cccc(-c3ccc4c(Nc5ccc(Oc6ccccc6)cc5)ccnc4c3)c2)CC1 ?
0

Value lookup for %Inh; key = CCn1c(-c2nonc2N)nc2c(C#CC(C)(C)O)nc(OC[C@H](N)c3ccccc3)cc21
0

Param item = NCCCC(NC(=O)c1cc(Br)c(-c2ccnc3[nH]ccc23)s1)c1ccccc1.O=C(O)C(F)(F)F.O=C(O)C(F)(F)F (centres unmarked) ; retrieve measured %Inh.
0

###

# Test system: NEK5
# Assay Context: concentration: 1 μM, replicates: in singlicate; n = 1
Observed Property: %Inh (%)
Your answer should be a plain number; it is taken to be in %.

Solved cases below.
Any idea what %Inh was measured for Cc1ccc(C)c(NC(=O)NC2CCN(c3ccnc(Nc4ccc(F)cc4)n3)C2)c1 (centres unmarked) ?
4

For the compound O=C(NC1CCN(c2ccnc(Nc3ccc(F)cc3)n2)C1)c1cc2ccccc2s1 (centres unmarked) , what %Inh is on record?
13

Can you look up the measured %Inh of Nc1ncc(-c2cccnc2)c2scc(-c3ccc4c(c3)CCN4C(=O)Cc3ccccc3)c12 for me?
22

Continuing:
Endpoint output: %Inh of Cc1occc1-c1ncc(OC[C@@H](N)Cc2c[nH]c3ccccc23)cc1-c1ccc2[nH]nc(C)c2c1.O=C(O)C(F)(F)F . Value?
24

Value lookup for %Inh; key = Cn1cc(-c2ccc3c(c2)CCN3C(=O)Cc2cccc(F)c2)c2c(N)ncnc21
28

Would you kindly share the measured %Inh for Cl.Cl.NCC(C(=O)Nc1cc(Br)c(-c2ccnc3[nH]ccc23)s1)c1ccccc1 (centres unmarked) ?
0

Entry Fc1ccc(-c2ncn(C3CCNCC3)c2-c2ccnc(Oc3ccc(-c4ccccc4)cc3)n2)cc1 : reported %Inh = ?
4

So what's the measured %Inh for this one? COc1cccc(C2=C(Nc3ccc(Cl)c(C(=O)O)c3)C(=O)NC2=O)c1
3

###

# Test system: BRSK1
# Assay Context: concentration: 1 μM, replicates: in singlicate; n = 1
Observed Property: %Inh (%)
Respond with the bare value in %.

Solved cases below.
Record request: %Inh value, item COc1ccc(-c2coc3ccc(-c4nnc(SCc5ccc(OC)c(C(F)(F)F)c5)o4)cc23)cc1
0

GET /values?readout=%Inh&item= CCCCc1nn2ncccc2c1-c1ccnc(Nc2ccc(N3CCN(C)CC3)cc2)n1
3

Name the recorded %Inh for O=C(Nc1cccc(-c2nn3ccccc3c2-c2ccnc(Nc3cccc(C(F)(F)F)c3)n2)c1)c1c(F)cccc1F .
0

Sample O=C(NC1CCN(c2ccnc(Nc3ccc(F)cc3)n2)C1)c1cc2ccccc2s1 (centres unmarked) — what was its %Inh?
18

Name the reported %Inh value associated with the compound Fc1ccc(-c2ncn(C3CCNCC3)c2-c2ccnc(Oc3ccc(-c4ccccc4)cc3)n2)cc1
14

Next:
Please give the measured %Inh for this compound: COC(=O)Nc1nc2ccc(Oc3ccc(NC(=O)Nc4cc(C(F)(F)F)ccc4F)cc3)cc2n1C.Cl
0

Recorded %Inh for Cc1ccc(C(=O)N2CC[C@@H](O)C2)cc1-n1c(C)cc(OCc2ccc(F)cc2F)c(Br)c1=O , please?
0

Look at this compound and give its reported %Inh. COc1cccc(NC(=O)NC2CCN(c3ccnc(Nc4cc(OC)c(OC)c(OC)c4)n3)C2)c1 (centres unmarked)
0

Any idea what its %Inh is? The compound is Cl.NC(=O)c1cccc(Nc2nccc(Nc3ccc(Oc4c(Cl)cccc4Cl)c(Cl)c3)n2)c1
0

Look up %Inh: CC(C)(C)c1ccc2nccc(Nc3cccc(O)c3)c2c1
0

Value lookup for %Inh; key = COc1cc(Nc2ncc3c(C)nc(-c4cc5ccccc5[nH]4)n3n2)cc(OC)c1OC
0

Could you share which %Inh value was measured for Cn1cc(-c2[nH]c3cc(NC(=O)[C@H](N)C4CCCCC4)cc4c3c2C=NNC4=O)cn1 ?
31

GET /values?readout=%Inh&item= COCCOCCOc1cc2ncc3c4ccc(C#N)cc4[nH]c3c2cc1OC
0

Sample COC(=O)Nc1nc2cc(Oc3ccc(NC(=O)Nc4cc(C(F)(F)F)ccc4F)cn3)ccc2[nH]1.Cl.Cl — what was its %Inh?
0

Request the reported %Inh associated with CC(C)c1nc(-c2cccc(NS(=O)(=O)c3c(F)cccc3F)c2F)c(-c2ccnc(Nc3ccc(N4CCOCC4)nc3)n2)s1
49

Which %Inh reading was recorded for the compound FC(F)(F)c1ccc(/C=C/c2cncnc2Nc2ccc3[nH]c(Cc4ccccc4)nc3c2)cc1 ?
3

Name the recorded %Inh for O=C(Nc1cccc(-c2nn3ccccc3c2-c2ccnc(Nc3cccc(F)c3)n2)c1)c1c(F)ccc(F)c1Cl .
5

Which %Inh is reported for this compound? CN1CCN(CCCNc2nccc(-c3c(-c4ccc(F)cc4)nn4cc(C(F)(F)F)ccc34)n2)CC1
2
